Taken from patent US20230265187A1.

# Target under test: T1, his-tagged human TIGIT (Acro Biosystems #TIT-H52H3) (human, UniProt Q495A1 22-141)
# T1 construct: Bought protein; also called His-tagged-TIGIT (human); not shown: his tag
# T1 sequence (looked up): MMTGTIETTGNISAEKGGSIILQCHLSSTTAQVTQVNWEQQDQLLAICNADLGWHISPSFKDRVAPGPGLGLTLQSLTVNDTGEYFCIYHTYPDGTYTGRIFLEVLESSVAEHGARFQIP
# Assay explanation: ELISA, coated His-TIGIT, 1 ug/ml
Test readout: Elisa OD450 (OD450)
Numbers only, in OD450.

43586p1.1.C2 (scFv, V domains shown) VH: EVQLLESGGGLVQPGGSLRLSCAASGFTFSDYYMNWVRQAPGKGLEWVSSINWNGGTTYYADSVKGRFTISRDNSRNTLYLQMNSLRAEDTAVYYCAKDQNWNFYYGMDVWGQGTTVTVSS VL: QSVLTQPPSASGTPGQRVTISCSGGSSNIGTNYVSWYQQLPGTAPKLLLYKEDQRPSGVPDRFSGSKSGTSASLAISGLQSEDEADYYCATWDGSLRSWVFGGGTKLTVL ... 1.49

Exam item: Could you share which Elisa OD450 value was measured for 43586p2.F02 (scFv, V domains shown) VH: EVQLLESGGGLVQPGGSLRLSCAASGFTFDDYVMSWVRQAPGKGLEWVSLINWNGDKTYYADSVKGRFTISRDNSKNTLYLQMNSLRAEDTAVYYCARHWIVLQYGLDVWGQGTTVTVSS VL: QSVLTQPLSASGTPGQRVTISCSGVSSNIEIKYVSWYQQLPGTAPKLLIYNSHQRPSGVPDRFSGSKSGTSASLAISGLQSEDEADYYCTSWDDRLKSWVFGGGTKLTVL ?
Marked response: 1.85
